Molecular target: T1, IL-2 receptor βγ complex on human T cells (human, UniProt P14784 27-551; P31785 23-369)
T1 sequence (looked up) 1: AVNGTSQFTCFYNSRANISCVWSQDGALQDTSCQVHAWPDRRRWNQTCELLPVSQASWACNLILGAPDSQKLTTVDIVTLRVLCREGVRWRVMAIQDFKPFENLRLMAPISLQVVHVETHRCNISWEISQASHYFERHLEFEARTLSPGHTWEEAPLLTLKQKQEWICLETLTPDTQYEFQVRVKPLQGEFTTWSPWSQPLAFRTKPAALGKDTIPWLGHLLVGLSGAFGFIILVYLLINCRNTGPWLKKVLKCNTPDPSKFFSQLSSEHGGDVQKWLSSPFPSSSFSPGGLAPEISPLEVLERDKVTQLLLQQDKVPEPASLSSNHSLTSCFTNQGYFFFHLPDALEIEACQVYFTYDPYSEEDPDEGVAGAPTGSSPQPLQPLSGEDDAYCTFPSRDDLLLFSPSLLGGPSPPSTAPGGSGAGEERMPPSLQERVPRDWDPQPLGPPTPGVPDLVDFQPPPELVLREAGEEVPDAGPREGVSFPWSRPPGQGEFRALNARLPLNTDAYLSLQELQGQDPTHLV
T1 sequence (looked up) 2: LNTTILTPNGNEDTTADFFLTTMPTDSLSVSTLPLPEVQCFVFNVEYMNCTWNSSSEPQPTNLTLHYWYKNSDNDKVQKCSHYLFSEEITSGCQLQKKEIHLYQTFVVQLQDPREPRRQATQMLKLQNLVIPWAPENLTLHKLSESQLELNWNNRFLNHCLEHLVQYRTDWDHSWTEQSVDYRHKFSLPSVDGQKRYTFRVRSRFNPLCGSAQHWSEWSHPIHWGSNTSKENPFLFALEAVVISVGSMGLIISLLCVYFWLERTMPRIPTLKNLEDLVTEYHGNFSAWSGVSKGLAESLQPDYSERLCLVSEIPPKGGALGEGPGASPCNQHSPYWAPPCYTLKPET
Assay: cell-based or functional assay
Primed or numbered codes have the meaning given here. [ ]: non-standard residue; d: D form. Ygp(3) = O-(PEG8-amino)-tyrosine; Yn3(3) = O-(PEG9-azido)-tyrosine; hSer = N[C@@H](CCO)C(=O)O; Nle = CCCC[C@H](N)C(=O)O
# if measured Average EC50, pSTAT5 Assay (T cells), MMP2 cleaved molecule < 0.9 nM: rule met  # else: rule not met

binder	class
CMP-147, MMP2 cleaved (ligand, also: MMP2-cleaved form, remnant not given here, Lys13 side chain attached moiety) APTSSSTKKTQLKLEHLLLDLQ[Nle]ILNGINNYKNPKLTR[Nle]L[hSer][Yn3(3)]KF[Ygp(3)][Nle]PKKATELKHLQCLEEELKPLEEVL[hSer]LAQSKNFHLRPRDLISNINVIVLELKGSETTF[hSer]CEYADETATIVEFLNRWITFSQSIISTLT	rule not met

For CMP-148, MMP2 cleaved (ligand, also: MMP2-cleaved form, remnant not given here, Lys15 side chain attached moiety) APTSSSTKKTQLQLKHLLLDLQ[Nle]ILNGINNYKNPKLTR[Nle]L[hSer][Yn3(3)]KF[Ygp(3)][Nle]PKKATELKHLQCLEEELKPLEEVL[hSer]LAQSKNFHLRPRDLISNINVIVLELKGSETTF[hSer]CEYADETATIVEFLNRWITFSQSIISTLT , is the recorded Average EC50, pSTAT5 Assay (T cells), MMP2 cleaved molecule below the cut-off of 0.9 nM?
rule not met

Please answer likewise for CMP-150, MMP2 cleaved (ligand, not fully specified; also: further groups not given here) APTSSSTKKTQLQLEHLLLDLK[Nle]ILNGINNYKNPKLTR[Nle]L[hSer][Yn3(3)]KF[Ygp(3)][Nle]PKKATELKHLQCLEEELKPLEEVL[hSer]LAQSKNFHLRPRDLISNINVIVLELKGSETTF[hSer]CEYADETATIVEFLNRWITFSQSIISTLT
rule met

Field entry: CMP-149, MMP2 cleaved (ligand, also: MMP2-cleaved form, remnant not given here, Lys19 side chain attached moiety) APTSSSTKKTQLQLEHLLKDLQ[Nle]ILNGINNYKNPKLTR[Nle]L[hSer][Yn3(3)]KF[Ygp(3)][Nle]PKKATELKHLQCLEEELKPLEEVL[hSer]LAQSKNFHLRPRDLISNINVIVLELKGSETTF[hSer]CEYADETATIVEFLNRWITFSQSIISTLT
rule not met
